Would you kindly list IC50 at 72 h for each of these compounds?
methodDescription: Antiproliferative activity against human L02 cells incubated for 72 hrs
Type: toxicity, cell-based
Give the value in µM but do not write µM after it.

Q: What value of IC50 at 72 h has been recorded for this entry: CC1CCCN(Cc2cc3c(cc2-c2cc4ccc5c(c4cn2)OCO5)OCO3)C1 (stereo not drawn)
Ans: 43

Q: What value of IC50 at 72 h has been recorded for this entry: `CCC(=O)C1CCN(Cc2cc3c(cc2-c2cc4ccc5c(c4cn2)OCO5)OCO3)CC1`
Ans: 41.7

Q: What value of IC50 at 72 h has been recorded for this entry: `NC(=O)C1CCN(Cc2cc3c(cc2-c2cc4ccc5c(c4cn2)OCO5)OCO3)CC1`
Ans: 25.1

Q: What value of IC50 at 72 h has been recorded for this entry: CC(O)C1CCN(Cc2cc3c(cc2-c2cc4ccc5c(c4cn2)OCO5)OCO3)CC1 (stereo not drawn)
Ans: 30.3

Q: What value of IC50 at 72 h has been recorded for this entry: CC[C@@]1(O)C(=O)OCc2c1cc1n(c2=O)Cc2cc3c(CN(C)C)c(O)ccc3nc2-1 [TOPOTECAN]
Ans: 0.26

---

Test system: NCI-H209
methodDescription: Antiproliferative activity against human NCI-H209 cells incubated for 72 hrs
Type: functional, cell-based
conditionParameters: NCI-H209, 72 h
observationType: IC50 (µM)
Give the value in µM but do not write µM after it.

Q: What value of IC50 has been recorded for this entry: CC1CCN1Cc1cc2c(cc1-c1cc3ccc4c(c3cn1)OCO4)OCO2 (centres undefined)
Ans: 48.8

Q: What value of IC50 has been recorded for this entry: `CC(C)C1CCN(Cc2cc3c(cc2-c2cc4ccc5c(c4cn2)OCO5)OCO3)CC1`
Ans: 6.92

Q: What value of IC50 has been recorded for this entry: `c1c(CN2CCCC2)c(-c2cc3ccc4c(c3cn2)OCO4)cc2c1OCO2`
Ans: 81.2

Q: What value of IC50 has been recorded for this entry: `CC(C)(O)C1CCN(Cc2cc3c(cc2-c2cc4ccc5c(c4cn2)OCO5)OCO3)CC1`
Ans: 64.9

Q: What value of IC50 has been recorded for this entry: CC1(O)CCN(Cc2cc3c(cc2-c2cc4ccc5c(c4cn2)OCO5)OCO3)C1 (centres undefined)
Ans: 72.7

Q: What value of IC50 has been recorded for this entry: CC1CCCN(Cc2cc3c(cc2-c2cc4ccc5c(c4cn2)OCO5)OCO3)C1 (centres undefined)
Ans: 40.6

Q: What value of IC50 has been recorded for this entry: OCC1CCN(Cc2cc3c(cc2-c2cc4ccc5c(c4cn2)OCO5)OCO3)C1 (centres undefined)
Ans: 56.6

---

Would you kindly list IC50 at 72 h for each of these molecules?
methodDescription: Antiproliferative activity against human BEAS-2B cells incubated for 72 hrs
Type: toxicity, cell-based

Q: What value of IC50 at 72 h has been recorded for this entry: `CC(C)C1CCN(Cc2cc3c(cc2-c2cc4ccc5c(c4cn2)OCO5)OCO3)CC1`
Ans: > 100 µM

Q: What value of IC50 at 72 h has been recorded for this entry: `COc1ccc2cc3[n+](cc2c1OC)CCc1cc2c(cc1-3)OCO2`
Ans: > 100 µM

Q: What value of IC50 at 72 h has been recorded for this entry: `FC(F)(F)C1CCN(Cc2cc3c(cc2-c2cc4ccc5c(c4cn2)OCO5)OCO3)CC1`
Ans: > 100 µM
